Assay: PK and oral bioavailability in the dog
Assay type: in vivo, Beagle dogs
Conditions: Beagle, plasma, IV, 1.0 mg/kg, PEG400
measure.name: AUC(0-inf) (ng·h/mL)
Please give a number only; it is taken to be in ng·h/mL.

COP(=O)(C1=C(C(=O)NCc2ccncc2)N=C2C=CC(Cl)=CC21)c1cc(C)cc(C)c1 (centres unmarked) [Compound N] | 970

**Query** Param item = COP(=O)(c1cc(C)cc(C)c1)c1c(C(=O)NCc2cc[n+]([O-])cc2)[nH]c2ccc(Cl)cc12 (centres unmarked) [Compound D] ; retrieve measured AUC(0-inf).
**Result** 1220

----------
Assay: PK and oral bioavailability in the dog
Format: in vivo, Beagle dogs
Details: Beagle, plasma, PO, 5.0 mg/kg, 0.5% MC, read-out: T½ (converted)
measure.name: half-life (min)
Please give a number only; it is taken to be in min.

**Query** Param item = COP(=O)(c1cc(C)cc(C)c1)c1c(C(=O)NCc2cc[n+]([O-])cc2)[nH]c2ccc(Cl)cc12 (stereo not shown) [Compound D] ; retrieve measured half-life.
**Result** 156

----------
# pEC50 per record follows
System: HIV mutant strain Y181C
Test: Cell-based assay using BH-10 cells, Y181C mutant
Conditions: Human immunodeficiency virus 1, read-out: EC50 Y181C, BH-10 cells, Y181C mutant
Hey, just a heads up that pEC50 is the negative log base 10 of the concentration in molar.

Here's what some known entries look like.
COP(=O)(c1cc(C)cc(C)c1)c1c(C(=O)NCc2cc[n+]([O-])cc2)[nH]c2ccc(Cl)c(F)c12 (stereo not shown) [Compound 22m] | 8.59
COP(=O)(c1cccc(C(C)C)c1)c1c(C(=O)NCc2ccncc2)[nH]c2ccc(Cl)cc12 (stereo not shown) [Compound 18aq] | 7.50
COP(=O)(c1cc(C)cc(C)c1)c1c(C(=O)NCc2ccc(Br)cc2)[nH]c2ccc(Cl)cc12 (stereo not shown) [Compound 18k] | 6.99

**Query** Param item = COP(=O)(c1cc(C)cc(C)c1)c1c(C(=O)NCc2ccncc2)[nH]c2ccc(Cl)c(F)c12 (stereo not shown) [Compound 18r] ; retrieve measured pEC50.
**Result** 7.78

----------
List of pIC50 tested on CYP2D6 (Homo sapiens).
Sequence (P10635 whole entry): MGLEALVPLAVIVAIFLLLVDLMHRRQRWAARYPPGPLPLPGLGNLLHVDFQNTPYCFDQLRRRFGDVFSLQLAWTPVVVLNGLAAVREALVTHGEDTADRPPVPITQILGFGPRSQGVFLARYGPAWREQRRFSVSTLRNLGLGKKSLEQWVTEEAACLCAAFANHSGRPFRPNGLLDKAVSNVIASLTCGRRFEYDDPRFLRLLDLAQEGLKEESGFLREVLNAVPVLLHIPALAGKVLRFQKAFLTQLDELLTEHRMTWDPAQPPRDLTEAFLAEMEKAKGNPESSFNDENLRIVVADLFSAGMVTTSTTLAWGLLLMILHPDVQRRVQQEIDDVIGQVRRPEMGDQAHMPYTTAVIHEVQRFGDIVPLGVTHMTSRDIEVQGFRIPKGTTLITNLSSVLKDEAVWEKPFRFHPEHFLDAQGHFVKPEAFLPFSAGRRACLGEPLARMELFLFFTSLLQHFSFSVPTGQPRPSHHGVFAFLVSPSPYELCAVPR
Hey, just a heads up that pIC50 is the negative log base 10 of the concentration in molar.

COP(=O)(C1=C(C(=O)NCc2ccncc2)N=C2C=CC(Cl)=C(F)C21)c1cc(C)cc(C)c1 (stereo not drawn) | 5.87

**Query** Param item = COP(=O)(C1=C(C(=O)NCc2ccncc2)N=C2C=CC(Cl)=CC21)c1cc(C)cc(C)c1 (stereo not drawn) ; retrieve measured pIC50.
**Result** 5.69

**Query** Follow-up item: COP(=O)(C1=C(C(=O)NCc2ccncc2)N=C2C=CC(Cl)=CC21)c1cc(C)cc(F)c1 (stereo not drawn)
**Result** 5.70

----------
Assay: PK and oral bioavailability in the dog
Format: in vivo, Beagle dogs
Conditions: Beagle, plasma, PO, 5.0 mg/kg, 0.5% MC
Procedure: The pharmacokinetics of a test compound was evaluated in Sprague-Dawley rats and Beagle dogs. A typical PK study involved dosing of 2 to 3 animals via a single IV bolus injection at 1 mg/kg and another 3 animals via a single oral gavage at 5 mg/kg. […] Plasma was separated and analyzed for test compound and its metabolite(s) by LC/MS/MS. PK parameters were calculated from the plasma concentration—time profile using a noncompartmental method. […]
measure.name: AUC(0-inf)

**Query** Param item = COP(=O)(c1cc(C)cc(C)c1)c1c(C(=O)NCc2cc[n+]([O-])cc2)[nH]c2ccc(Cl)cc12 (stereo not shown) ; retrieve measured AUC(0-inf).
**Result** 747 ng·h/mL
